molecular target: AuroraB (Homo sapiens); construct: 20 μL of AuroraB FL H is for a final volume of 41 μL; His; assay: AuroraB Homogeneous Time Resolved Fluorescent (HTRF) kinase assay; assay type: biochemical; conditions: average; read-out: AurB_IC50_IP (uM Avg)
Sequence (Q96GD4 whole entry): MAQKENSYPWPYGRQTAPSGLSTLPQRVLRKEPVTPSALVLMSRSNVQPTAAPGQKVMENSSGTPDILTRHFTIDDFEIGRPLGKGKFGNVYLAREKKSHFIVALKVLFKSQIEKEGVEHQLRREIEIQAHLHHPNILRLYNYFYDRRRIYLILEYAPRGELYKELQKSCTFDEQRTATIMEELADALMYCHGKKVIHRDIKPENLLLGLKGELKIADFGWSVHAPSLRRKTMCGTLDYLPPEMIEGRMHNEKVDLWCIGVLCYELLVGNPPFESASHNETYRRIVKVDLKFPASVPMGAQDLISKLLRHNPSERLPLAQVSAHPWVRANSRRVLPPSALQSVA
Hi! Could you tag entries with IC50 below 0.005 µM as Y, and those at or above as N? Much appreciated.

[
  {
    "molecule": "O=C(Nc1cc(Oc2ccc(Nc3nnc(-c4ccccc4)c4ccccc34)cc2F)ccn1)N1CCOCC1 [compound 179]",
    "tested-system": "AuroraB (Homo sapiens)",
    "class-label": "N"
  },
  {
    "molecule": "COc1cnc2c(Sc3ccc(Nc4nnc(N5CCN(C)CC5)c5ccccc45)cc3)ccnc2c1 [compound 503]",
    "tested-system": "AuroraB (Homo sapiens)",
    "class-label": "N"
  },
  {
    "molecule": "Nc1ccc2nccc(Sc3ccc(Nc4nnc(-c5ccccc5)c5ccccc45)cc3)c2c1 [Example 399]",
    "tested-system": "AuroraB (Homo sapiens)",
    "class-label": "N"
  },
  {
    "molecule": "Cn1cc(-c2ccc3c(Oc4ccc(Nc5nnc(-c6ccccc6)c6ccccc56)cc4)ccnc3c2)cn1 [compound 338]",
    "tested-system": "AuroraB (Homo sapiens)",
    "class-label": "N"
  },
  {
    "molecule": "COc1cnc2c(N(C)c3ccc(Nc4nnc(-c5ccccc5)c5ccccc45)cc3)ccnc2c1 [compound 51]",
    "tested-system": "AuroraB (Homo sapiens)",
    "class-label": "N"
  },
  {
    "molecule": "C#Cc1ccc(-c2nnc(Nc3ccc(Oc4ccnc5cc(OC)cnc45)cc3)c3ccccc23)cc1 [compound 287]",
    "tested-system": "AuroraB (Homo sapiens)",
    "class-label": "N"
  },
  {
    "molecule": "Clc1ccc(-c2nnc(Nc3ccc(Sc4ccnc5[nH]ccc45)cc3)c3ccccc23)cc1 [compound 330]",
    "tested-system": "AuroraB (Homo sapiens)",
    "class-label": "N"
  },
  {
    "molecule": "COc1cc(OC)c2c(Oc3ccc(Nc4nnc(-c5cc(C)cs5)c5ccccc45)cc3)ccnc2c1 [compound 441]",
    "tested-system": "AuroraB (Homo sapiens)",
    "class-label": "N"
  },
  {
    "molecule": "CC(C)n1ccc2nccc(Sc3ccc(Nc4nnc(-c5ccc(Cl)cc5)c5ccccc45)cc3)c21 [compound 471]",
    "tested-system": "AuroraB (Homo sapiens)",
    "class-label": "N"
  },
  {
    "molecule": "COc1cc2nccc(Oc3ccc(Nc4nnc(-c5ccc(C)cn5)c5ccccc45)cc3)c2cn1 [compound 103]",
    "tested-system": "AuroraB (Homo sapiens)",
    "class-label": "Y"
  },
  {
    "molecule": "Clc1ccc(-c2nnc(Nc3ccc(Sc4ccnc5cccnc45)cc3)c3ccccc23)nc1 [compound 493]",
    "tested-system": "AuroraB (Homo sapiens)",
    "class-label": "Y"
  },
  {
    "molecule": "COc1cnc2c(Oc3ccc(Nc4nnc(-c5ccc(F)cc5)c5ccccc45)cc3)ccnc2c1 [compound 220]",
    "tested-system": "AuroraB (Homo sapiens)",
    "class-label": "Y"
  },
  {
    "molecule": "COc1ccc(-c2nnc(Nc3ccc(Sc4ccnc5cccnc45)cc3)c3ccccc23)cn1 [compound 509]",
    "tested-system": "AuroraB (Homo sapiens)",
    "class-label": "N"
  },
  {
    "molecule": "COc1cc(OC)c2c(Sc3ccc(Nc4nnc(-c5ccccc5)c5ccccc45)cc3)ncnc2c1 [compound 581]",
    "tested-system": "AuroraB (Homo sapiens)",
    "class-label": "N"
  }
]
